B1: SERPINB5 (parent)
chain: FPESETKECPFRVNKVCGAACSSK

Variants of: B1
Assay: protein stability index of a GFP-peptide fusion (GPS, HEK-293T) (PSI 1-6); higher = more stable;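 also: lentivirally expressed fusions sorted by FACS into six bins by GFP to DsRed ratio, PSI derived from sequencing read proportions per bin multiplied by bin number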
Settings: c terminus: a fixed tail appended
measuredProperty: protein stability index
Reply: number alone, nothing else.

[[record]]
sequencetext = "FEESETKECPFRVNKVCGAACSSK [P2E]"
value = 4.59


# protein stability index lookup, item FPESETKECPFRVNKVCGAACWSK [S22W]
2.03

# protein stability index lookup, item FAESETKECPFRVNKVCGAACSSK [P2A]
2.02

# protein stability index lookup, item FPESETKECPFRVNRVCGAACSSK [K15R]
2.76

# protein stability index lookup, item FPESETKECPFRGNKVCGAACSSK [V13G]
3.81
